System: Thanatephorus cucumeris
Assay info: Antifungal activity against Rhizoctonia solani at 50 ug/ml
Type: functional
# inhibition at 50 µg/mL per entry
Record the value in %, omitting the unit from your answer.

Guide cases for inhibition at 50 µg/mL, answers given:
CO/N=C(/C(=O)OC)c1ccccc1CSc1nnc(-c2ccc(F)cc2)o1	97.9
CO/N=C(/C(=O)OC)c1ccccc1CSc1nnc(-c2cccc(Cl)c2)o1	94.4

Query string: I have this compound here, `CO/N=C(/C(=O)OC)c1ccccc1CSc1nnc(-c2cc(F)c(Cl)cc2Cl)o1` , and I need its recorded inhibition at 50 µg/mL.
Result string: 97.8

Query string: Moving on to the next compound: `CO/N=C(/C(=O)OC)c1ccccc1CSc1nnc(-c2ccc(C(F)(F)F)cc2)o1`
Result string: 95.6

Query string: Likewise for `CO/N=C(/C(=O)OC)c1ccccc1CSc1nnc(-c2ccc(Cl)cc2Cl)o1` ?
Result string: 92.6

Query string: And then `CO/N=C(/C(=O)OC)c1ccccc1CSc1nnc(-c2ccccc2F)o1` , what is it?
Result string: 92.6

Query string: What about this compound? `CO/N=C(/C(=O)OC)c1ccccc1CSc1nnc(-c2ccc(OCc3ccccc3)cc2)o1`
Result string: 98
